Molecular target: T1, human CD70, recombinant, N-terminally biotinylated (residues 39-193) (human, UniProt P32970 39-193, N-terminal biotin)
T1 construct: range 39-193; the same entry is used there; also called biotinylated human CD70; CD70 biotin
T1 sequence (looked up): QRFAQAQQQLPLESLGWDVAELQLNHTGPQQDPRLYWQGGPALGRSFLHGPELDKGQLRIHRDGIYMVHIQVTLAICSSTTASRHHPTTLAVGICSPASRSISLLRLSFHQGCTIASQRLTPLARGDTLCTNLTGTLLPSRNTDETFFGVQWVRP
Experiment: CD27 blocking ELISA, 3 µM scFv, strep/HRP
Quick list: strep/HRP per entry.

binder: 37-TC7-VII-D05 (scFv, His-tagged) scFv: QMQLVQSGGGVVQPGRSLRLSCAASGFTFSSYAMHWVRQAPGKGLEWVAVISYDGSNKYYADSVKGRFTISRDNSKNTLYLQMNSLRAEDTAVYYCARDALWDTATFDYWGQGTLVTVSSGGSGGSGGSGGSSSELTQDPAVSVALGQTVRITCQGDSLRSYYASWYQQKPGQAPVLVIYGKNNRPSGIPDRFSGSSSGNTASLTITGAQAEDEADYYCNSRDSSGNPWVFGGGTKLTVL
strep/HRP: 0.655
//
binder: 35-TC6-VII-A09 (scFv, His-tagged) scFv: EVQLVQSGGGVVQPGRSLRLSCAASGFTFSSYGMHWVRQAPGKGLEWVAVISYDGSNKYYADSVKGRFTISRDNSKNTLYLQMNSLRAEDTAVYYCAKAGAPPHYYYGMDVWGQGTTVTVSSGGSGGSGGSGGSQSALTQPASVSGSPGQSITISCTGTSSDVGGYDYVSWYQQHPGKAPKLMIYEVTDRPSGIPNRFSGSKSGNTASLTISGLQAEDEADYYCSSYTYTSTLEVFGGGTKVTVL
strep/HRP: 1.49
//
binder: 39-TC6-IV-B08 (scFv, His-tagged; also called 1885) scFv: QVQLVESGGGVVQPGGSLRLSCAASGFTFSSYAMHWVRQAPGKGLEWVAVISYDGSNKYYADSVKGRFTISRDNSKNTLYLQMNSLRAEDTAVYYCARDGHPYYYGMDVWGQGTTVTVSSGGSGGSGGSGGSQSALTQPASVSGSPGQSITISCTGTSSDVGDYNYVSWYQHHPGKAPKLMIYDVSNRPSGVSNRFSGSKSGNTASLTISGLQAEDEADYYCGSYTGSDTWVFGGGTKVTVL
strep/HRP: 0.268
